Experiment: Phase 1b severe COVID-19 study: pharmacokinetics (plasma concentrations, Bayesian population PK)
Type: in vivo, human
Conditions: human, plasma, oral, 300 mg, Day 1 (n = 46); Mean (SD); 300 mg BID; plasma; participants with severe COVID-19; Bayesian population PK analysis; read-out: AUC0-12
Outcome Measure: AUC(0-t) (ng·h/mL)

1. CN1C(=O)[C@@H](NC(=O)c2nnc(Cc3ccccc3)[nH]2)COc2cccnc21 [RIPK1 Inhibitor]
28200

---

Test: Phase 1b severe COVID-19 study: pharmacokinetics (plasma concentrations, Bayesian population PK)
Format: in vivo, human
Conditions: human, plasma, oral, 300 mg, Day 14 (n = 10); Mean (SD); 300 mg BID; plasma; participants with severe COVID-19; Bayesian population PK analysis; read-out: Cmax
Procedure: RIPK1 Inhibitor concentrations at selected time points over the two weeks of treatment were summarized by descriptive statistics. PK parameters such as Cmax, tmax, and AUC were calculated by a Bayesian analysis: the main results are presented in Section 5.2. Descriptive statistics on plasma concentration of RIPK1 Inhibitor were analyzed by the Sponsor's Biostatistics Department. […]
Outcome Measure: Cmax (ng/mL)

1) CN1C(=O)[C@@H](NC(=O)c2nnc(Cc3ccccc3)[nH]2)COc2cccnc21
5630
